Parameter Mean no. of eggs laid per mosquito, peptide: see the listing below.
system: An. gambiae (Mali strain); assay: Mosquito oviposition after blood feed containing AMP; assay type: in vivo, Anopheles gambiae; conditions: after first feed with 50 µM AMP; eggs laid over two nights, averaged per surviving mosquito; 3 or 4 replicates
No end group written: not given here.
ENDPOINT: Mean no. of eggs laid per mosquito, peptide

[
  {
    "SEQ_TEXT": "GLLKRIKTLL [Anoplin, 10 aa peptide isolated from the solitary wasp, homology to Mastoparan X]",
    "NUMERIC_READOUT": 36
  },
  {
    "SEQ_TEXT": "KFPKFRRGIPFLFVGPSGKFPKFRRGIPFLFV [Vida 3 dimer]",
    "NUMERIC_READOUT": 43
  },
  {
    "SEQ_TEXT": "AGYLLGKINLKALAALAKKILGGAGYLLGKINLKALAALAKKIL [TP10 dimer, TP10 (dimer)]",
    "NUMERIC_READOUT": 25
  },
  {
    "SEQ_TEXT": "CKQSCSFGPFTFVCDGNTK (also: bicyclic or more (positions not given here)) [Duramycin, A lantibiotic from bacteria, 19 aa (Sigma D3168)]",
    "NUMERIC_READOUT": 39
  }
]

###

system: An. gambiae (Mali strain); test: Mosquito longevity after blood feeds containing AMP; format: in vivo, Anopheles gambiae; details: over 10 days; 50 µM AMP in human blood, feeds on days 0 and 7; 3 or 4 replicates
No end group written: not given here.
ENDPOINT: Percent alive, peptide (%)

[
  {
    "SEQ_TEXT": "AGYLLGKINLKALAALAKKILGGAGYLLGKINLKALAALAKKIL [TP10 dimer, TP10 (dimer)]",
    "SYSTEM_NAME": "An. gambiae (Mali strain)",
    "ENDPOINT": "Percent alive, peptide",
    "NUMERIC_READOUT": 76
  },
  {
    "SEQ_TEXT": "KFPKFRRGIPFLFVGPSGKFPKFRRGIPFLFV [Vida 3 dimer]",
    "SYSTEM_NAME": "An. gambiae (Mali strain)",
    "ENDPOINT": "Percent alive, peptide",
    "NUMERIC_READOUT": 68
  },
  {
    "SEQ_TEXT": "CKQSCSFGPFTFVCDGNTK (also: bicyclic or more (positions not given here)) [Duramycin, A lantibiotic from bacteria, 19 aa (Sigma D3168)]",
    "SYSTEM_NAME": "An. gambiae (Mali strain)",
    "ENDPOINT": "Percent alive, peptide",
    "NUMERIC_READOUT": 84
  },
  {
    "SEQ_TEXT": "GLLKRIKTLL [Anoplin, 10 aa peptide isolated from the solitary wasp, homology to Mastoparan X]",
    "SYSTEM_NAME": "An. gambiae (Mali strain)",
    "ENDPOINT": "Percent alive, peptide",
    "NUMERIC_READOUT": 80
  }
]

###

test system: P. berghei; assay: P. berghei infections in Anopheles stephensi (oocyst prevalence and intensity); type: in vivo, Plasmodium berghei; details: Replicate 1; 50 µM peptide in gametocytaemic mouse blood fed to An. stephensi
No end group written: not given here.
ENDPOINT: Prevalence (proportion of infected mosquitoes), peptide

[
  {
    "SEQ_TEXT": "KFPKFRRGIPFLFVGPSGKFPKFRRGIPFLFV [Vida 3 dimer]",
    "RESULT": "33% (40)"
  },
  {
    "SEQ_TEXT": "AGYLLGKINLKALAALAKKILGGAGYLLGKINLKALAALAKKIL [TP10 dimer, TP10 (dimer)]",
    "RESULT": "56% (50)"
  },
  {
    "SEQ_TEXT": "CKQSCSFGPFTFVCDGNTK (also: bicyclic or more (positions not given here)) [Duramycin, A lantibiotic from bacteria, 19 aa (Sigma D3168)]",
    "RESULT": "80% (50)"
  },
  {
    "SEQ_TEXT": "GLLKRIKTLL [Anoplin, 10 aa peptide isolated from the solitary wasp, homology to Mastoparan X]",
    "RESULT": "66% (44)"
  }
]
